test: Cytotoxicity in mock-infected human MT4 cells assessed as reduction in cell viability incubated for 5 days by MTT assay; format: cell-based
Flag rule - CC50 at 120 h less than 40 µM flags true (1); the remaining entries get false (0).

Is it true that CC50 at 120 h reported for Cc1ccc(C(=O)Nc2ccc3c(=O)n(O)c(=O)[nH]c3c2)cc1 is less than 40 µM?
true (1)

Identify whether the compound O=c1[nH]c2ccc(NS(=O)(=O)c3ccc(F)cc3)cc2c(=O)n1O records CC50 at 120 h below 40 µM.
false (0)

Could you please tell me whether CC50 at 120 h recorded for O=c1[nH]c2ccc(NS(=O)(=O)c3ccccc3)cc2c(=O)n1O is less than 40 µM?
false (0)

Here's an entry: O=c1[nH]c2ccc(NS(=O)(=O)c3ccc4ccccc4c3)cc2c(=O)n1O . Is its CC50 at 120 h below 40 µM?
false (0)

Determine if O=c1[nH]c2cc(NS(=O)(=O)c3ccc4ccccc4c3)ccc2c(=O)n1O shows CC50 at 120 h strictly lower than 40 µM.
false (0)

Take the compound O=C(Nc1ccc2c(=O)n(O)c(=O)[nH]c2c1)c1ccc(C(F)(F)F)cc1 and say whether its CC50 at 120 h is less than 40 µM.
false (0)

Below 40 µM on CC50 at 120 h? Entry CC(C)(C)c1ccc(S(=O)(=O)Nc2ccc3c(=O)n(O)c(=O)[nH]c3c2)cc1
false (0)

For CC(C)c1ccc(O)c(=O)c(O)c1 , is the recorded CC50 at 120 h below the cut-off of 40 µM?
true (1)

Does the reported CC50 at 120 h of O=C(Nc1ccc2c(=O)n(O)c(=O)[nH]c2c1)c1ccc(F)cc1 stay below 40 µM?
false (0)

====

biological target: Human immunodeficiency virus type 1 reverse transcriptase (Human immunodeficiency virus 1, UniProt Q72547)
endpoint-name: IC50

Entry O=c1[nH]c2ccc(NS(=O)(=O)c3ccc(F)cc3)cc2c(=O)n1O , IC50 reported as 2.25 µM

Entry O=c1[nH]c2ccc(NS(=O)(=O)c3ccccc3)cc2c(=O)n1O ; IC50 = 1.19 µM

The molecule identified as O=C(Nc1ccc2c(=O)n(O)c(=O)[nH]c2c1)c1ccccc1 registered its IC50 at 2.52 µM

Lab book: IC50 of CC(C)(C)c1ccc(S(=O)(=O)Nc2ccc3c(=O)n(O)c(=O)[nH]c3c2)cc1 noted as 5.88 µM

The molecule Cc1cc(C)c(S(=O)(=O)Nc2ccc3c(=O)n(O)c(=O)[nH]c3c2)c(C)c1 showed IC50 equal to 3.24 µM

What the record says about O=C(Nc1ccc2c(=O)n(O)c(=O)[nH]c2c1)c1ccc(C(F)(F)F)cc1 : IC50 is 6.09 µM

Sample O=c1[nH]c2cc(NS(=O)(=O)c3ccc4ccccc4c3)ccc2c(=O)n1O ; IC50 observed: 20.1 µM

Just so you know, measured IC50 for Cc1cccc(S(=O)(=O)Nc2ccc3c(=O)n(O)c(=O)[nH]c3c2)c1 came out at 4.1 µM
